TEST: yeast display, Sf9 membrane polyspecificity reagent, FACS + sequencing; frameworks hold sequencing errors
METRIC_NAME: polyreactivity (PSR sort gate)

{"SEQUENCE_CHAIN": "QVQLVESGGGLVQAGCSLRLSCAASGRIFSYNAMGWYRPAPAKERELVAAISSDGSTYYADSVKGRFTISRDNAKNTVYLQMNSLKPEDTAVYYCAAYPRVNGNILSTGDYWGQGTQVTVSS", "polyreactivity (PSR sort gate)": "low polyreactivity"}
{"SEQUENCE_CHAIN": "QVQLVESGGGLVQAGGSLRLSCAASGRIFVNYAMGWYRQAPGKERELVAAITSDGSTSYADSVKGRFTISRDNAKNTVYLQMNSLKPEDTAVYYCAKDFFEHSPVSHTYSSSNYDYWGQGTQVTVSS", "polyreactivity (PSR sort gate)": "low polyreactivity"}
{"SEQUENCE_CHAIN": "QVQLVESAGGLVQAGGSHRLSCAASGITFYRYVMARYRQAPGKERELVAAITSGGNTYYADSVKGRFTISRDNAKNTFYLQMNRLKPDDTAVYYCAAYFSGPFDYWGQGTQVTVSS", "polyreactivity (PSR sort gate)": "high polyreactivity"}
{"SEQUENCE_CHAIN": "QVQLGESGGGLVQAGGSLRLSCAASGRIFNVYAMGWYRQAPGKERELVAAISTGSPTYYADSVKGRFTISRDNAKNTVYLQMNSLKPEDTAVYYCATGYIHGDYWSFRHQYYYWGQGTQVTVSS", "polyreactivity (PSR sort gate)": "low polyreactivity"}
{"SEQUENCE_CHAIN": "QVQLEESVGGLVQAGGSLRISCAASGRTFKLYAMGRKRQAPGKERELVATITRRGGSTYYADSVKGRFTISRDNAKNTVYLQMNSLKPEDTAVYYCASDAIGYYGTYDYWGQGTQVTVSS", "polyreactivity (PSR sort gate)": "high polyreactivity"}

Below: the item to evaluate.
Request: Requested read-out: polyreactivity (PSR sort gate). Entry: QVQLVESGGGLVQAGGSLRLSCAASGRTFVWYAMGWYRQAPGKERELVAAITLSGGSTYYADSVKGRFTISRDNAKNTVYLQMNSLKPEDTAVYYCAADGTYRPEDYDYWGQGTQVTVSS
Response: low polyreactivity

---

TEST: yeast display, Sf9 membrane polyspecificity reagent, FACS + sequencing; frameworks hold sequencing errors
METRIC_NAME: polyreactivity (PSR sort gate)

See these solved cases before continuing.
{"SEQUENCE_CHAIN": "QVQLVESGGGLVQAGGSLRLSCAASGRTYRYAMGWYRQPPGKERELVAGISSSGTSTNYADSVKGRFTISRDNAKNTVYLQMNSLKPEDTAVYYCNADIIWFPADYLYDYWGQGTQVTVSS", "TEST_RESULT": "low polyreactivity"}
{"SEQUENCE_CHAIN": "QVQLVESGGGLVQAGGSLRLSCAASGRIFVANAMGWYRKAPGTERELVAAISRRGGRTYYADSVKGRFTISRDNAKNTVYLQMNSLKPEDTAVYYCAAIRSVTRFPRRYDYWGQGTPVTVSS", "TEST_RESULT": "high polyreactivity"}
{"SEQUENCE_CHAIN": "QVQLVESGGGLVQAGGSLSLSCAASGSIFKFNTMGWSRQAPRKERELVAAISRSGGSTYYADSVKGRFTISRDNAKNNVYLQMNSLKPEDTAVYYCAARQFSGPYVRYGYWGQGTQVSVSS", "TEST_RESULT": "high polyreactivity"}
{"SEQUENCE_CHAIN": "QLQLVESGGGLVQAGGSLRLSCAASGRIRYIAIGWYRQAPWKERELVAAITSSGGSTYYADSVKGRFTISRDNAKYTVDLQMNRLKPEDTAVYYCNAVASLSVDYWGQGTQVTVSS", "TEST_RESULT": "high polyreactivity"}
{"SEQUENCE_CHAIN": "QVQLVESGGGLVQAGGSLRLSCAASGSTFRRNAMGWYRQAPGKERELVAAITVSGGSTYYADSVKGRFTISRDNAKNTVYLQMNSLKPEDTAVYYCAAEPSQYSWYTTYYYWGQGTQVTVSS", "TEST_RESULT": "high polyreactivity"}
{"SEQUENCE_CHAIN": "QVQLVESGGGLVQAGGSLRLSCAASGRIISRYAMGWYRQAPGKERELVAAISRRGGSTYYADSVKGRFTISRDNAKKTVYLQMNSLKPEDTAVYYCNADTGNRGYDYWGQGTQVTVSS", "TEST_RESULT": "high polyreactivity"}

Request: Requested read-out: polyreactivity (PSR sort gate). Entry: QVQLVESGGGLVQAGGSLRLSCAASGSIFSRNAMGWYRPAPGKERELVAAITSSGGRTYYADSVKGRFTISRDNAKNTVYLQMNSLKPEDTAVYYCAARARGGDWGSGDYWGQGTQVTVSS
Response: high polyreactivity

Request: Requested read-out: polyreactivity (PSR sort gate). Entry: QVQLVESGGGLVQAGGSLRLSCAASGRIFQTYAMGWYRQAPGNERELVARIRLSGGSTYYADSVKGRFTISRDNAKNTVYLQMNRLKPEATAVYYCAALYSRARFTDPYYYWGQGTQVTVSS
Response: high polyreactivity

Request: Requested read-out: polyreactivity (PSR sort gate). Entry: QVQLVESGGGLVQAGGSLRLSCAASGSILFLNAMGWYSQAPGKERELVASITDSGGGTYYADSVKGRFTISRDNAKNTVYLQMNSLKPEDTAVYYCNARSRRPDDYWGQGTQVTVSS
Response: low polyreactivity

Request: Requested read-out: polyreactivity (PSR sort gate). Entry: QVQLVESGGGLVQAGGSLRLSCAASRFIFWSYAMGWYIQAPGTEREMVAAIDMTGGSTYYADYVKGRFTISRDNAKNTVYLQMNSLKPEDTAVYYCNADGDTYAFTNSDSGFDYWGQGTQVTVSS
Response: low polyreactivity

Request: Requested read-out: polyreactivity (PSR sort gate). Entry: QVQLVESGGGLVQAGGSLRLSCAASGRIFSRNTMGWYRQAPGKEREFVAAISQSGGRTYYADSVKGRFTISRDNAKNTVYLQMNSLKPEDTAVYYCAAPSQSRGYYYWGQGTQVTVSS
Response: high polyreactivity

---

TEST: yeast display, Sf9 membrane polyspecificity reagent, FACS + sequencing; frameworks hold sequencing errors
METRIC_NAME: polyreactivity (PSR sort gate)

See these solved cases before continuing.
{"SEQUENCE_CHAIN": "QVQLVESGGGLVQAGGSLRLSCAASGRTFSAYAMGWYRQAPGKERELVARITSVDSTNYADSVKGRFTISRDNAKNTVYLQMNSLKPEDTAVYYCNATFGYPCVDYDDYWGQGTQGTVSS", "METRIC_NAME": "polyreactivity (PSR sort gate)", "TEST_RESULT": "low polyreactivity"}
{"SEQUENCE_CHAIN": "QVQLVESGGGLVQAGGSLRLSCAASGFIFKRSAMGWYRQAPGKERELVAAITLSGGDTYYADSVKGRFTISRDNAKNNVYLQMNSLKPEDTAVYYCNAPYIGENYYWGQGTQVTVSS", "METRIC_NAME": "polyreactivity (PSR sort gate)", "TEST_RESULT": "high polyreactivity"}
{"SEQUENCE_CHAIN": "QVQLVESGGGLVQAGGSLRLSCAASGSTFYLYAMGWYRPAPGKERELVASITSGDGSTYYADSVKGRFTISRDNAKNTVYLQMNSLKPEDTAVYYCNAVLEGWFYQYDYWGQGTQVTVSS", "METRIC_NAME": "polyreactivity (PSR sort gate)", "TEST_RESULT": "low polyreactivity"}
{"SEQUENCE_CHAIN": "QVQLLESGGGLVQAGGSLRLSCAASGITLYRYTMGWYRQAPGKEREFVAAISRSGGSTYYADSVKGRFTLSRDNAKNTVYFQMKSLKPDDTAVYYCAAPWYEKTTRPYGSWGQGTQVTVSS", "METRIC_NAME": "polyreactivity (PSR sort gate)", "TEST_RESULT": "high polyreactivity"}
{"SEQUENCE_CHAIN": "QVQLVESGGGLVQAGGSLRLSCAASGRIFLLNPMGWYRKAPGKERELVARISSGRTYYADSVKGRFTISRDNAKNTVYLQMNILKPEDTAVYYCNATVSSSKYRYFYVNPYDYWGQGTQVTVSS", "METRIC_NAME": "polyreactivity (PSR sort gate)", "TEST_RESULT": "low polyreactivity"}
{"SEQUENCE_CHAIN": "QVQLVESGGGLVQAGRSNRLSCAASGSLFPDYTMGWYRQAPGQERELVAGSTWNRGGTYYADSVKGRFTISRDNAKNTVYLQMNILKPEDTAVYYCAAEWSGSRSSGAWGPYNYWGQGSQVTVSS", "METRIC_NAME": "polyreactivity (PSR sort gate)", "TEST_RESULT": "low polyreactivity"}
{"SEQUENCE_CHAIN": "QVQLVESGGGLVQAGGSLRLSCAASGFTFGAYARGWYRQAPGKERELVAAISSRGGSTYYADSVKGRFTISRDNAKNTVYLQKNSLKPEDTAVYYCAANSYRRTGYNYWGQGTQVSVSS", "METRIC_NAME": "polyreactivity (PSR sort gate)", "TEST_RESULT": "high polyreactivity"}
{"SEQUENCE_CHAIN": "QVQLVESGGGLVQAGGSLRLSCAASGSIFRYNAMGWYRQAPGKERELVAGITWGGGRTYYADSVKGRFTISRDNAKNTVYLQMNSLKPEDTAVYYCNAVRKYKGDSSFDYWGQGTQVTVSS", "METRIC_NAME": "polyreactivity (PSR sort gate)", "TEST_RESULT": "high polyreactivity"}

Request: Requested read-out: polyreactivity (PSR sort gate). Entry: QVQLVESGGGLVQAGGSLRLSCAASGSIFQRYAMGWYRQAPGKERELVAAISGSGGRTYYADSVKGRFTISRDNAKNTVYLQMNSLKPEDTAVYYCAKDFRLRGGYDYWGQGTQVTVSS
Response: high polyreactivity

Request: Requested read-out: polyreactivity (PSR sort gate). Entry: QFQLVESGRGLVQAGGSLRLSCASSGSTQKYAMGWYRQAPRKERELVAAIRRTGGSTYYADSVKGRFKISRDNAKNTVYLQMNSLKPEDTAVYYCAAYIWVAESYDWGQGTQVTVSS
Response: low polyreactivity

Request: Requested read-out: polyreactivity (PSR sort gate). Entry: QVQLVESGGGLVQAGGSLRISCAASGRTFECYAMGWSRQAPGKERELVAAISSGGSTYYADSVKGRFTISRDNAKNTVYLQMNSLKPEDTAVYYCNVLSQQRTARYDYWGQGTQVTVSS
Response: low polyreactivity
